src = ChEMBL document CHEMBL1140259

Reported pIC50 for target or system Neuropeptide Y receptor type 5 (Mus musculus), by entry.
Recall that pIC50 is obtained by taking minus log10 of the concentration measured in molar.

{"CHEMICAL_STRING": "COc1ccc(C)cc1S(=O)(=O)NCCCNc1ncc(C(=O)c2ccccc2C)s1", "pIC50": 9.15}

Look up pIC50 of Cc1ccccc1C(=O)c1cnc(NCCCNS(=O)(=O)c2cccs2)s1 and report it.
9.00
